Assay: Quantitative High-Throughput drug screen in 47 multiple myeloma cell lines against the NCATS MIPE library collection: MMM1_PLB cell viability assay (AID 1918976); further: potency means the concentration at half of the fitted maximal effect; nearly all actives have a fitted effect of over 35% in size
Settings: MMM1 myeloma cells viability, CellTiter-Glo, 48 h; series mostly up to 45.8 µM
Inconclusive results are not listed. Calls of active or inactive are those of the source. The call rests on the fitted dose curve; in most records, active means well fitted cell-killing curve with a large enough effect; inconclusive means small, poorly fitted or top-dose-only effect, or effect the other way; inactive means no such curve, though single readings can be large or run the other way.
Consider the following compounds; for each one, report its Potency.

{"compound": "O=C(O)COCCN1CCN(C(c2ccccc2)c2ccc(Cl)cc2)CC1 (configuration not stated)", "Potency": "14.8 µM (active)"}
{"compound": "COc1ccc(COc2cc3oc(=O)c4cc(C(C)O)ccc4c3cc2OC)cc1 (configuration not stated)", "Potency": "18.7 µM (active)"}
{"compound": "NC(=O)C1CCCc2c1[nH]c1ccc(Cl)cc21 (configuration not stated)", "Potency": "3.32 µM (active)"}
{"compound": "COc1cc(Oc2ccnc3cc(OC)c(OC)cc23)ccc1NC(=O)NC(C)c1nccs1 (configuration not stated)", "Potency": "16.6 µM (active)"}

Please look at the items below and tell me Potency for each one, in order.
1. O=C(Nc1nc2ccccc2n1CCN1CCOCC1)c1cccc([N+](=O)[O-])c1
2. COc1ccc(-c2ccc3c(N4CCOCC4)nc(N4C[C@@H](C)O[C@@H](C)C4)nc3n2)cc1CO
3. COc1ccccc1[C@H](c1cccc2ccccc12)[C@@](C)(C#N)C(=O)N1CCC(c2cccc(C(F)(F)F)c2)CC1
4. CCC(=O)N[C@H]1CC[C@H](C(=O)N(C)c2ccc(-c3nc4ccccc4o3)cc2)C1
5. COc1cc2nccc(Oc3ccc(NC(=O)NC4CC4)c(Cl)c3)c2cc1C(N)=O
6. Nc1nc2[nH]cc(CCc3ccc(C(=O)N[C@@H](CCC(=O)O)C(=O)O)cc3)c2c(=O)[nH]1

**Result**
["13.2 µM (active)", "0.105 µM (active)", "11.8 µM (active)", "14.8 µM (active)", "2.35 µM (active)", "2.09 µM (active)"]

* * *

Assay: Cell Viability - HepG2 (AID 433);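 further: potency means the concentration at half of the fitted maximal effect; cells exposed to compound for 40 hours; potency for ATP loss meaning cytotoxicity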
Settings: qHTS
Source text: NIH Chemical Genomics Center [NCGC] NIH Molecular Libraries Screening Centers Network [MLSCN] National Institutes of Environmental Health Sciences [NIEHS] National Toxicology Program [NTP] We have developed a 1536-well cell-based assay for quantitative high throughput screening (qHTS) against a number of cell lines to determine in vitro cytotoxicity of small molecules. […] 8. Detection; Luminescence; Viewlux plate reader […]
Results filed as inconclusive are left out. The source made the active and inactive calls. Calls follow the shape of the full dose curve.
parameter-measured: Potency

{"structure-smiles": "NC(N)=NC(=O)c1nc(Cl)c(N)nc1N", "Potency": "> 92 µM (inactive)"}

Please look at the items below and tell me Potency for each one, in order.
1. NS(=O)(=O)c1cc2c(cc1Cl)NC=NS2(=O)=O
2. CC(=O)Oc1ccccc1C(=O)O
3. O=c1[nH]cnc2[nH]ncc12
4. CCCC(CCC)C(=O)O

**Result**
["> 92 µM (inactive)", "> 92 µM (inactive)", "> 92 µM (inactive)", "> 92 µM (inactive)"]

* * *

Assay: Quantitative High-Throughput drug screen in 47 multiple myeloma cell lines against the NCATS MIPE library collection: OPM2_DSMZ cell viability assay (AID 1919872); further: nearly all actives have a fitted effect of over 30% in size; further: potency means the concentration at half of the fitted maximal effect
Details: OPM2 myeloma viability, CellTiter-Glo ATP luminescence, 48 h; series mostly up to 45.8 µM
Records with an inconclusive call do not appear. Calls of active or inactive are those of the source. The call rests on the fitted dose curve; in most records, active means well fitted cell-killing curve with a large enough effect; inconclusive means small, poorly fitted or top-dose-only effect, or effect the other way; inactive means no such curve, though single readings can be large or run the other way.
parameter-measured: Potency

Solved cases (8 shown):
{"molecule": "COc1nc(-c2ccc3c(c2)OCO3)n(-c2ccc(NC(=O)CSc3ccccc3)cc2)n1", "Potency": "inactive"}
{"molecule": "CS(=O)(=O)c1cccc(CNc2nc(Nc3ccc4c(c3)CCC(=O)N4)ncc2C(F)(F)F)c1", "Potency": "20.9 µM (active)"}
{"molecule": "Cc1cc2c(F)c(Oc3ncnn4cc(OC[C@@H](C)O)c(C)c34)ccc2[nH]1", "Potency": "23.5 µM (active)"}
{"molecule": "COc1ccccc1[C@H](c1cccc2ccccc12)[C@@](C)(C#N)C(=O)N1CCC(c2cccc(C(F)(F)F)c2)CC1", "Potency": "8.33 µM (active)"}
{"molecule": "Clc1ccc(Nc2nnc(Cc3ccncc3)c3ccccc23)cc1", "Potency": "inactive"}
{"molecule": "NS(=O)(=O)c1cc2c(cc1Cl)NC=NS2(=O)=O", "Potency": "inactive"}
{"molecule": "O=c1n(CCCN2CCN(c3cccc(Cl)c3)CC2)nc2ccccn12", "Potency": "inactive"}
{"molecule": "Cc1c(C)c2c(c(C)c1O)CCC(C)(COc1ccc(CC3SC(=O)NC3=O)cc1)O2 (configuration not stated)", "Potency": "inactive"}

Please look at the items below and tell me Potency for each one, in order.
1. OC(CCN1CCCCC1)(c1ccccc1)C1CC2C=CC1C2 (configuration not stated)
2. CC(C)(C)NCC(O)c1ccc(O)c(CO)c1 (configuration not stated)
3. CCCC(CCC)C(=O)O
4. COc1cc(F)c(F)c(Nc2ccc(I)cc2F)c1NS(=O)(=O)C1(C[C@H](O)CO)CC1
5. O=C(C1CC1)N1CC[C@@H](Cn2c(-c3ccc(-c4ccc5occc5c4)cc3)nc3cnccc32)C1
6. Cc1cnc(NC(=O)C2=C(O)c3ccccc3S(=O)(=O)N2C)s1
7. CCCc1nc2c(C)cc(-c3nc4ccccc4n3C)cc2n1Cc1ccc(-c2ccccc2C(=O)O)cc1
8. CNC[C@H](O)c1cccc(O)c1

**Result**
["inactive", "inactive", "inactive", "inactive", "20.9 µM (active)", "inactive", "inactive", "inactive"]

* * *

Test system: MKL-2
Assay: qHTS assay to identify novel small-molecules to repurpose for Merkel cell carcinoma treatment (AID 1296009); further: nearly all actives have a fitted effect of over 60% in size
Settings: MCC and control cell lines, CellTiter-Glo viability, 72 h; series mostly up to 46 µM
Results filed as inconclusive are left out. Calls of active or inactive are those of the source. Calls follow the shape of the dose curve; as a rule, active = well fitted inhibition curve with a large enough effect; inconclusive = small, poorly fitted or top-dose-only effect; inactive = flat fitted curve, though single readings scatter.
parameter-measured: outcome

{"molecule": "COc1cc(Oc2ccnc3cc(OC)c(OC)cc23)ccc1NC(=O)NC(C)c1nccs1 (configuration not stated)", "result-value": "inactive"}
{"molecule": "CC1(C)Cc2c(-c3ccccc3)c(-c3ccc(Cl)cc3)c(CC(=O)O)n2C1", "result-value": "inactive"}
{"molecule": "NC(=O)c1ccc(I)c([N+](=O)[O-])c1", "result-value": "inactive"}
{"molecule": "O=C1CCC(N2C(=O)c3ccccc3C2=O)C(=O)N1 (configuration not stated)", "result-value": "inactive"}
{"molecule": "CCc1ccc(CCOc2ccc(CC3SC(=O)NC3=O)cc2)nc1 (configuration not stated)", "result-value": "inactive"}
{"molecule": "CCCS(=O)(=O)Nc1ccc(F)c(C(=O)c2c[nH]c3ncc(-c4ccc(Cl)cc4)cc23)c1F", "result-value": "inactive"}
{"molecule": "Cc1cc(SCc2sc(-c3ccc(C(F)(F)F)cc3)nc2C)ccc1OCC(=O)O", "result-value": "inactive"}
{"molecule": "NC(=O)c1ccc(-c2nc(-c3ccc4c(c3)OCO4)c(-c3ccccn3)[nH]2)cc1", "result-value": "inactive"}
{"molecule": "O=C1CCc2cc(OCCCCc3nnnn3C3CCCCC3)ccc2N1", "result-value": "inactive"}
{"molecule": "CCOc1cc(C=C2C(=O)N(c3ccccc3)N=C2C)cc(Cl)c1OCC(=O)OC", "result-value": "inactive"}

Please look at the items below and tell me outcome for each one, in order.
1. C1COC(NC(C2CC2)C2CC2)=N1
2. COc1ccc2nc(S(=O)Cc3ncc(C)c(OC)c3C)[nH]c2c1 (configuration not stated)

**Result**
1. inactive
2. inactive

* * *

Test: qHTS to identify inhibitors of the type 1 interferon - major histocompatibility complex class I in skeletal muscle: primary screen against the NCATS LOPAC collection (AID 1347405);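 further: human myoblasts with HiBiT tag on endogenous HLA-B stimulated by IFN-beta; lytic HiBiT luminescence reporting HLA-B protein level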
Settings: iHSKM muscle cells, IFN-b-induced MHC-I HiBiT luminescence, 24 h; series mostly up to 45.9 µM
Excerpt: Assay Submitter (PI): Travis B. Kinder Ph.D. & James Inglese Ph.D. Assay Development and Screening Technology Laboratory (ADST) National Center for Advancing Translational Sciences (NCATS), Rockville, MD National Institute of Health (NIH), Bethesda, Maryland […]
Results filed as inconclusive are left out. Active and inactive are the calls of the source. Calls follow the shape of the dose curve; as a rule, active = well fitted inhibition curve with a large enough effect; inconclusive = small, poorly fitted or top-dose-only effect; inactive = flat fitted curve, though single readings scatter.
Form entry, call: pick from Yes = active, No = inactive

{"compound": "CCCc1nn(C)c2c(=O)[nH]c(-c3cc(S(=O)(=O)N4CCN(C)CC4)ccc3OCC)nc12", "assigned-label": "No"}
{"compound": "O=c1n(CCCN2CCN(c3cccc(Cl)c3)CC2)nc2ccccn12", "assigned-label": "No"}
{"compound": "NS(=O)(=O)c1cc2c(cc1Cl)NC=NS2(=O)=O", "assigned-label": "No"}
{"compound": "CS(=O)(=O)c1cccc(CNc2nc(Nc3ccc4c(c3)CCC(=O)N4)ncc2C(F)(F)F)c1", "assigned-label": "Yes"}

**Query** Record lookup: outcome of this test for CC(C)(C)NCC(O)c1ccc(O)c(CO)c1 (stereo not drawn) ?
**Result** No

**Query** Can you check `CCCC(CCC)C(=O)O` next?
**Result** No

**Query** Can you check `Cc1cn[nH]c1` next?
**Result** No

**Query** Can you check `O=NN(CCCl)C(=O)NCCCl` next?
**Result** No

**Query** Can you check `NC(N)=NC(=O)c1nc(Cl)c(N)nc1N` next?
**Result** No

**Query** Can you check `Cn1cnc([N+](=O)[O-])c1Sc1ncnc2nc[nH]c12` next?
**Result** No

**Query** Can you check CCN(CC)CCCC(C)Nc1ccnc2cc(Cl)ccc12 (stereo not drawn) next?
**Result** No

**Query** Can you check `CCc1cncnc1N1CCN(Cc2nc3ccc(C(F)(F)F)cc3[nH]2)CC1` next?
**Result** No

**Query** Can you check `O=C(O)CCc1ccc(NCc2cccc(Oc3ccccc3)c2)cc1` next?
**Result** No

Each recorded value in this set is attributed to PubChem BioAssay (NCATS).
